# System: 565726-208-R1-J5-PDC complex spheroids, growth inhibition
# assayInfo: Anticancer human tumor 565726-208-R1-J5-PDC patient-derived pancreatic adenocarcinoma cell line growth inhibition [RAS]
# experimentalContext: second compound 3.16 µM; first compound 10 µM; hits give low values
The following compounds are shown together with reported viability, T/C values.
Respond with the bare value in %.

Looking up C[C@@H](NC(=O)c1ncnc(N)c1Cl)c1ncc(C(=O)Nc2cc(C(F)(F)F)c(Cl)cn2)s1 + C#Cc1c(F)ccc2cc(O)cc(-c3ncc4c(N5CC6CCC(C5)N6)nc(OCC56CCCN5CC(F)C6)nc4c3F)c12 , I see its viability, T/C listed as 102

Field viability, T/C (entry CCC(CC)c1cc(NC2CCC(N)C2)n2nccc2n1 (stereo not given) + C#Cc1c(F)ccc2cc(O)cc(-c3ncc4c(N5CC6CCC(C5)N6)nc(OCC56CCCN5CC(F)C6)nc4c3F)c12 ) reads 1.4

Lab book: viability, T/C of CC(=O)OC12COC1CC(O)C1(C)C(=O)C(O)C3=C(C)C(OC(=O)C(O)C(NC(=O)OC(C)(C)C)c4ccccc4)CC(O)(C(OC(=O)c4ccccc4)C21)C3(C)C (stereo not given) + C#Cc1c(F)ccc2cc(O)cc(-c3ncc4c(N5CC6CCC(C5)N6)nc(OCC56CCCN5CC(F)C6)nc4c3F)c12 noted as 26.7

Note to self: viability, T/C recorded for CC(C)NCC(C(=O)N1CCN(c2ncnc3c2C(C)CC3O)CC1)c1ccc(Cl)cc1 (stereo not given) + C#Cc1c(F)ccc2cc(O)cc(-c3ncc4c(N5CC6CCC(C5)N6)nc(OCC56CCCN5CC(F)C6)nc4c3F)c12 was 34.7

// recorded viability, T/C for CC(Nc1ccc2c(c1)OCCn1cc(N3C(=O)OCC3C(F)F)nc1-2)C(N)=O (stereo not given) + C#Cc1c(F)ccc2cc(O)cc(-c3ncc4c(N5CC6CCC(C5)N6)nc(OCC56CCCN5CC(F)C6)nc4c3F)c12 : 45.3

###

# System: 565726-208-R1-J5-PDC complex spheroids, growth inhibition
# assayInfo: Anticancer human tumor 565726-208-R1-J5-PDC cell line growth inhibition [RAS];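 also: spheroids exposed to compounds for seven days before readout; 100% = DMSO vehicle control viability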
# experimentalContext: second compound 0.0316 µM; first compound 3.16 µM; hits give low values
Exam item: assign 1 to entries whose viability, T/C is below 90% and -1 to entries at or above 90%. Note that a value of exactly 90% receives -1.

Use the examples below as a reference point.
CCC(CC)c1cc(NC2CCC(N)C2)n2nccc2n1 (stereo not given) + C=CC(=O)N1CCN(c2nc(OCC3CCCN3C)nc3c(F)c(-c4nc(N)cc(C)c4C(F)(F)F)c(Cl)cc23)C(C)C1 | 1
CC(C)NCC(C(=O)N1CCN(c2ncnc3c2C(C)CC3O)CC1)c1ccc(Cl)cc1 (stereo not given) + C=CC(=O)N1CCN(c2nc(OCC3CCCN3C)nc3c(F)c(-c4nc(N)cc(C)c4C(F)(F)F)c(Cl)cc23)C(C)C1 | -1
CC(Nc1ccc2c(c1)OCCn1cc(N3C(=O)OCC3C(F)F)nc1-2)C(N)=O (stereo not given) + C=CC(=O)N1CCN(c2nc(OCC3CCCN3C)nc3c(F)c(-c4nc(N)cc(C)c4C(F)(F)F)c(Cl)cc23)C(C)C1 | -1

# evaluate next
Here's an entry: CC(Nc1ccc2c(c1)OCCn1cc(N3C(=O)OCC3C(F)F)nc1-2)C(N)=O (stereo not given) + C#Cc1c(F)ccc2cc(O)cc(-c3ncc4c(N5CC6CCC(C5)N6)nc(OCC56CCCN5CC(F)C6)nc4c3F)c12 . Is its viability, T/C below 90%?
-1

###

# Tested on: 565726-208-R1-J5-PDC complex spheroids, growth inhibition
# assayInfo: Anticancer human tumor 565726-208-R1-J5-PDC cell line growth inhibition [RAS];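 also: spheroids exposed to compounds for seven days before readout; 100% = DMSO vehicle control viability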
# experimentalContext: second compound 0.03 µM; first compound 10 µM; hits give low values
endpoint: viability, T/C (%)
Lab book: enter the figure in %, no units written.

The recorded viability, T/C for CC1(O)CCCC1n1c(=O)c(C(F)F)cc2cnc(NC3CCN(S(C)(=O)=O)CC3)nc21 (stereo unspecified) + CCn1c(-c2cc(N3CCN(C)CC3)cnc2C(C)OC)c2c3cc(ccc31)-c1csc(n1)CC(NC(=O)C1CC1C)C(=O)N1CCCC(N1)C(=O)OCC(C)(C)C2 is 3.06

###

# Test system: 565726-208-R1-J5-PDC complex spheroids, growth inhibition
# assayInfo: Anticancer human tumor 565726-208-R1-J5-PDC cell line growth inhibition [RAS];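 also: spheroids exposed to compounds for seven days before readout; 100% = DMSO vehicle control viability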
# experimentalContext: second compound 0.000949 µM; first compound 0.316 µM; hits give low values
Threshold 60%. viability, T/C below it: Criterion met. viability, T/C at it or above: Criterion not met.

NC1c2ccccc2OC12CCN(c1cnc3c(N4CCCc5ncccc54)n[nH]c3n1)CC2 (centres undefined) + CCn1c(-c2cc(N3CCN(C)CC3)cnc2C(C)OC)c2c3cc(ccc31)-c1csc(n1)CC(NC(=O)C1CC1C)C(=O)N1CCCC(N1)C(=O)OCC(C)(C)C2 | Criterion met
Nc1ccn(C2OC(CO)C(O)C2(F)F)c(=O)n1 (centres undefined) + CCn1c(-c2cccnc2C(C)OC)c2c3cc(ccc31)N1CCOC(CC(NC(=O)C(C(C)C)N(C)C(=O)C3(F)CCN(C(=O)C#CC(C)(C)N(C)C)CC3)C(=O)N3CCCC(N3)C(=O)OCC(C)(C)C2)C1 | Criterion met
C[C@@H](NC(=O)c1ncnc(N)c1Cl)c1ncc(C(=O)Nc2cc(C(F)(F)F)c(Cl)cn2)s1 + CCn1c(-c2cccnc2C(C)OC)c2c3cc(ccc31)N1CCOC(CC(NC(=O)C(C(C)C)N(C)C(=O)C3(F)CCN(C(=O)C#CC(C)(C)N(C)C)CC3)C(=O)N3CCCC(N3)C(=O)OCC(C)(C)C2)C1 | Criterion not met
CC(Nc1ccc2c(c1)OCCn1cc(N3C(=O)OCC3C(F)F)nc1-2)C(N)=O (centres undefined) + CCn1c(-c2cc(N3CCN(C)CC3)cnc2C(C)OC)c2c3cc(ccc31)-c1csc(n1)CC(NC(=O)C1CC1C)C(=O)N1CCCC(N1)C(=O)OCC(C)(C)C2 | Criterion met
Cc1nc(N2CCC3(CC2)COC(C)C3N)c(CO)nc1Sc1ccnc(N)c1Cl (centres undefined) + CCn1c(-c2cccnc2C(C)OC)c2c3cc(ccc31)N1CCOC(CC(NC(=O)C(C(C)C)N(C)C(=O)C3(F)CCN(C(=O)C#CC(C)(C)N(C)C)CC3)C(=O)N3CCCC(N3)C(=O)OCC(C)(C)C2)C1 | Criterion not met
CCC(CC)c1cc(NC2CCC(N)C2)n2nccc2n1 (centres undefined) + CCn1c(-c2cccnc2C(C)OC)c2c3cc(ccc31)N1CCOC(CC(NC(=O)C(C(C)C)N(C)C(=O)C3(F)CCN(C(=O)C#CC(C)(C)N(C)C)CC3)C(=O)N3CCCC(N3)C(=O)OCC(C)(C)C2)C1 | Criterion not met

Shifting focus to the molecule that follows.
Just wondering, is viability, T/C of NC1c2ccccc2OC12CCN(c1cnc3c(N4CCCc5ncccc54)n[nH]c3n1)CC2 (centres undefined) + CCn1c(-c2cccnc2C(C)OC)c2c3cc(ccc31)N1CCOC(CC(NC(=O)C(C(C)C)N(C)C(=O)C3(F)CCN(C(=O)C#CC(C)(C)N(C)C)CC3)C(=O)N3CCCC(N3)C(=O)OCC(C)(C)C2)C1 below 60%?
Criterion not met

###

# Test system: 565726-208-R1-J5-PDC complex spheroids, growth inhibition
# assayInfo: Anticancer human tumor 565726-208-R1-J5-PDC cell line growth inhibition [RAS];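 also: spheroids exposed to compounds for seven days before readout; 100% = DMSO vehicle control viability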
# experimentalContext: second compound 0.003 µM; first compound 0.000949 µM; hits give low values
# From the text: RAS pathway inhibitors in Combinations in Complex Spheroids A high-throughput screen of multi-cell type tumor spheroids was designed to identify active combinations of RAS pathway inhibitors and targeted small molecules. Complex spheroids include a stromal component modeled by human endothelial cells (HUVEC) and fibroblasts modeled by human mesenchymal stem cells (MSCs). […] Compounds. […] If the clinical Cmax for an agent had not been determined, the highest concentration tested was 10 microM. […]
endpoint: viability, T/C (%)
Numeric answer only, unit % assumed.

Here are 3 molecules together with their reported answers.
CCc1c2c(nc3ccc(O)cc13)-c1cc3c(c(=O)n1C2)COC(=O)[C@]3(O)CC + CCn1c(-c2cc(N3CCN(C)CC3)cnc2C(C)OC)c2c3cc(ccc31)-c1csc(n1)CC(NC(=O)C1CC1C)C(=O)N1CCCC(N1)C(=O)OCC(C)(C)C2 | 47.9
CCc1c2c(nc3ccc(O)cc13)-c1cc3c(c(=O)n1C2)COC(=O)[C@]3(O)CC + CCn1c(-c2cccnc2C(C)OC)c2c3cc(ccc31)N1CCOC(CC(NC(=O)C(C(C)C)N(C)C(=O)C3(F)CCN(C(=O)C#CC(C)(C)N(C)C)CC3)C(=O)N3CCCC(N3)C(=O)OCC(C)(C)C2)C1 | 80.3
CC1(C)CCC(Nc2ncc(C(F)(F)F)c(-c3c[nH]c4c(P(C)(C)=O)c(C#N)ccc34)n2)CN1 (centres undefined) + CCn1c(-c2cc(N3CCN(C)CC3)cnc2C(C)OC)c2c3cc(ccc31)-c1csc(n1)CC(NC(=O)C1CC1C)C(=O)N1CCCC(N1)C(=O)OCC(C)(C)C2 | 46.8

Sample CC1(C)CCC(Nc2ncc(C(F)(F)F)c(-c3c[nH]c4c(P(C)(C)=O)c(C#N)ccc34)n2)CN1 (centres undefined) + CCn1c(-c2cccnc2C(C)OC)c2c3cc(ccc31)N1CCOC(CC(NC(=O)C(C(C)C)N(C)C(=O)C3(F)CCN(C(=O)C#CC(C)(C)N(C)C)CC3)C(=O)N3CCCC(N3)C(=O)OCC(C)(C)C2)C1 ; viability, T/C observed: 89
